Tested on: HOP-92 NSCLC
Experiment: NCI-60 one-dose screen, 48 h
Settings: 10 µM unless noted
Compounds without any hit were thinned out: in the full panel of roughly 83,000, 20% have a hit. Calls of active or inactive are those of the source. How the source made its calls: active means growth percent below 10; inactive means the rest.
Outcome codes: active, inactive

[
  {
    "COMPOUND": "CCOC(=O)/C(C#N)=C\\Nc1ccc2ncnc(Nc3ccc(Cl)cc3Cl)c2c1",
    "LABEL_VALUE": "inactive"
  },
  {
    "COMPOUND": "COc1cc(Nc2cn[nH]c2-c2ccc(Cl)cc2)cc(OC)c1OC",
    "LABEL_VALUE": "inactive"
  },
  {
    "COMPOUND": "Cc1cccc(OCC(O)CN2CCN(c3ccc(Cl)cc3)CC2)c1 (stereo not drawn)",
    "LABEL_VALUE": "inactive"
  },
  {
    "COMPOUND": "COc1ccc(C(Cc2ccccc2)NCCN2CCOCC2)cc1 (stereo not drawn)",
    "LABEL_VALUE": "inactive"
  },
  {
    "COMPOUND": "COc1cc(/C=N/NC(=O)c2ccc(C)nc2)cc(OC)c1OC",
    "LABEL_VALUE": "inactive"
  },
  {
    "COMPOUND": "CCC(=O)Nc1ccc(-c2nc(-c3cccc(OC)c3)c(-c3ccnc(Br)c3)[nH]2)cc1",
    "LABEL_VALUE": "inactive"
  },
  {
    "COMPOUND": "C=C1C(=O)O[C@H]2[C@H]1CC/C(COC(=O)CCSSCCC(=O)OC/C1=C/CC[C@@]3(C)O[C@H]3[C@H]3OC(=O)C(=C)[C@@H]3CC1)=C\\CC[C@@]1(C)O[C@@H]21",
    "LABEL_VALUE": "active"
  },
  {
    "COMPOUND": "O=C(O)C(c1ccccc1)N1C(=O)CSC1=S (stereo not drawn)",
    "LABEL_VALUE": "inactive"
  },
  {
    "COMPOUND": "CC(=O)OC[C@H]1OC(Sc2sc(C(=O)c3ccc(Br)cc3)c(N)c2-c2nc3ccccc3s2)[C@H](OC(C)=O)[C@@H](OC(C)=O)[C@H]1OC(C)=O (stereo partly drawn)",
    "LABEL_VALUE": "inactive"
  },
  {
    "COMPOUND": "Cc1ccc(C(=O)NCCNc2nccc(-c3c(-c4cccc(F)c4)nc4sccn34)n2)cc1",
    "LABEL_VALUE": "inactive"
  },
  {
    "COMPOUND": "CC/C=C\\C[C@@H]1C/C=C2/C(=O)C=C[C@H]2C/C=C\\CCCC(=O)O1",
    "LABEL_VALUE": "active"
  },
  {
    "COMPOUND": "CCOC(=O)c1cn2ncnc(Oc3ccc(NC(=O)NCCN(C)C)c(Cl)c3)c2c1C",
    "LABEL_VALUE": "inactive"
  },
  {
    "COMPOUND": "COc1cc(/C=C/c2c(C(C)=O)c(C)nc3ccccc23)cc(OC)c1OC",
    "LABEL_VALUE": "inactive"
  },
  {
    "COMPOUND": "Cc1nc2ccccc2c(/C=C/c2ccc(Cl)cc2)c1C(=O)/C=C/c1cccs1",
    "LABEL_VALUE": "inactive"
  },
  {
    "COMPOUND": "CC1Cc2c(ncn3c(-c4ccc(F)cc4)nnc23)N(C)c2ccccc21 (stereo not drawn)",
    "LABEL_VALUE": "inactive"
  },
  {
    "COMPOUND": "c1cc(NCCc2ccncc2)nc(-n2cnc3ccccc32)c1",
    "LABEL_VALUE": "inactive"
  },
  {
    "COMPOUND": "COc1ccc(C(=O)n2nc(-c3ccccc3)nc2N)cc1OC",
    "LABEL_VALUE": "inactive"
  },
  {
    "COMPOUND": "O=C1COCCN1c1ccc(NCc2cn(C(=O)c3ccc(Cl)cc3)c3ccccc23)cc1",
    "LABEL_VALUE": "inactive"
  },
  {
    "COMPOUND": "COc1ccc(CN2c3ccccc3Sc3ccccc32)c(F)c1",
    "LABEL_VALUE": "inactive"
  },
  {
    "COMPOUND": "NCCCNc1nc2ccc(Cl)cc2c2c(=O)c3cc(F)ccc3sc12",
    "LABEL_VALUE": "inactive"
  },
  {
    "COMPOUND": "COc1c(N2CC3CCCN(C(C)=O)C3C2)c(F)cc2c(=O)c(C(=O)N[C@H]3C(O)[C@@H](O)C(CO)O[C@H]3O)cn(C3CC3)c12 (stereo partly drawn)",
    "LABEL_VALUE": "inactive"
  },
  {
    "COMPOUND": "C=CCNc1ccc2c3c(cccc13)C(=O)N(N1C(=O)c3cccc4cccc(c34)C1=O)C2=O",
    "LABEL_VALUE": "inactive"
  },
  {
    "COMPOUND": "COc1ccc(CNC(=O)C(=O)[C@H](Cc2ccccc2)NC(=O)c2[nH]c3ccccc3c(=O)c2C)cc1",
    "LABEL_VALUE": "inactive"
  },
  {
    "COMPOUND": "COc1ccc(C2CC(c3ccc(Nc4nc(Nc5ccc(F)cc5)nc(Nc5ccc(Cl)cc5)n4)cc3)=NN2C(C)=O)cc1 (stereo not drawn)",
    "LABEL_VALUE": "inactive"
  },
  {
    "COMPOUND": "C#Cc1cccc(NC(=O)Nc2ccccc2NC(=O)CCl)c1",
    "LABEL_VALUE": "active"
  },
  {
    "COMPOUND": "CCCCCCCCCCCCCCCCCCOc1ccc(CC(=O)OCC[N+]2(C)CCCCC2)cc1",
    "LABEL_VALUE": "inactive"
  },
  {
    "COMPOUND": "O=C1CN(CCN2CC(=O)N(Cc3ccccc3)C(=O)C2)CC(=O)N1Cc1ccccc1",
    "LABEL_VALUE": "inactive"
  },
  {
    "COMPOUND": "Cc1ccc(-c2nc(N3CCN(CC(=O)Nc4ccc(Cl)c(C(F)(F)F)c4)CC3)c3ccccc3n2)cc1",
    "LABEL_VALUE": "inactive"
  },
  {
    "COMPOUND": "Cc1cc(N2CCCC2)nc(N(CCCNc2ccnc3cc(Cl)ccc23)Cc2ccccn2)n1",
    "LABEL_VALUE": "inactive"
  },
  {
    "COMPOUND": "COc1ccc2c(c1)C(C)Cc1c(ncnc1-n1c(C)nc3ccccc31)N2C (stereo not drawn)",
    "LABEL_VALUE": "active"
  },
  {
    "COMPOUND": "c1ccc2cc(C[n+]3ccn(CCCCCCn4cc[n+](Cc5ccc6ccccc6c5)c4)c3)ccc2c1",
    "LABEL_VALUE": "inactive"
  },
  {
    "COMPOUND": "COc1ccc(-c2cc(-c3ccc(Cl)cc3)c(C#N)c(=O)n2CCCCCC(=O)Nc2ccccc2N)cc1",
    "LABEL_VALUE": "inactive"
  },
  {
    "COMPOUND": "COc1cc(CNS(=O)(=O)c2ccc(C)cc2)ccc1OCc1cn(-c2ccccc2)nn1",
    "LABEL_VALUE": "inactive"
  },
  {
    "COMPOUND": "O=C1c2cccc3cccc(c23)C(=O)N1Nc1nc(NC2CCCCC2)nc(N2CCOCC2)n1",
    "LABEL_VALUE": "inactive"
  },
  {
    "COMPOUND": "O=C(CCN1C(=O)/C(=C/c2ccc(O)cc2)SC1=S)Nc1ccc(Cl)cc1",
    "LABEL_VALUE": "inactive"
  },
  {
    "COMPOUND": "Cc1cc(C)c(-c2c(N)cc(Br)cc2Br)c(N)c1",
    "LABEL_VALUE": "active"
  },
  {
    "COMPOUND": "O=C1CCC/C=C\\C[C@H]2C=CC(=O)/C2=C/C[C@H](CCc2cccc(C(F)(F)F)c2)O1",
    "LABEL_VALUE": "active"
  },
  {
    "COMPOUND": "CNC(=O)c1cc(-n2ccc3cc(NC(=O)c4ccc(N5CCOCC5)c(C(F)(F)F)c4)ccc32)ccn1",
    "LABEL_VALUE": "inactive"
  }
]
